Data provenance is patent EP1157000B1.

- Target Desc: rBCATc (Rattus norvegicus, UniProt P54690)
- Construct: The supernatant was dialyzed with at least three changes of dialysis buffer; from tissue; host or cells: rat brain (high-speed supernatant of homogenate, dialyzed)
- Sequence (P54690 1-411): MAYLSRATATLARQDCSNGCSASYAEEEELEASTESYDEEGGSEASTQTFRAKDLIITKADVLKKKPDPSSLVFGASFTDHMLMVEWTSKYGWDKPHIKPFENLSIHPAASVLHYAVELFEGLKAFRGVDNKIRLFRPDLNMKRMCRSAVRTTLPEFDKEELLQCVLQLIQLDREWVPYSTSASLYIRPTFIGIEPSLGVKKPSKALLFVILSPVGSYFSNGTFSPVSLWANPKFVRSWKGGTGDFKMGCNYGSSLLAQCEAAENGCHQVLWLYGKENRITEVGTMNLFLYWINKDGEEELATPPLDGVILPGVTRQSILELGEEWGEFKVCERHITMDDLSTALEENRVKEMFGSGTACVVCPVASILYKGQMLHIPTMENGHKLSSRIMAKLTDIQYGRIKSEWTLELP
- Assay Method Text: Assay of BCAT ([14C] L-leucine transamination, rat brain supernatant enzyme)
- Format: biochemical
- Condition Parameters: 25 µM [14C] L-leucine, 10 mM 2-oxoglutarate, pH 8.3, 10 min, 22 °C; read-out: rBCATc IC50
Counter-ions that a name gives are not always drawn.
Quick list: IC50 per entry.
A number alone suffices; assume mM.

Molecule: C[C@@H]1C[C@H](C)CC(CNC2CCCCC2)(CC(=O)O)C1 (some centres unmarked) [Example 47, hydrochloride salt]
Experimental Value: 15.6
--
Molecule: C[C@@H]1CC(CN)(CC(=O)O)C[C@H]1C [Example 6, hydrochloride]
Experimental Value: 2.62
--
Molecule: C[C@@H]1C[C@H](C)CC(CNC2CCC2)(CC(=O)O)C1 (some centres unmarked) [Example 41, hydrochloride salt]
Experimental Value: 0.363
--
Molecule: NCC1(CC(=O)O)CCCC1 [Example 23, 1-Aminomethyl-1-cyclopentane-acetic acid]
Experimental Value: 2.12
--
Molecule: CC(C)NCC1(CC(=O)O)CCCCC1 [Example 33, hydrochloride salt]
Experimental Value: 1.02
--
Molecule: C[C@@H]1C[C@H](C)CC(CNCC2CCCC2)(CC(=O)O)C1 (some centres unmarked) [Example 45, hydrochloride salt]
Experimental Value: 1.33
--
Molecule: CCCNCC1(CC(=O)O)C[C@H](C)C[C@H](C)C1 (stereo in doubt) [Example 62, hydrochloride salt]
Experimental Value: 4.22

Please examine the following record next.
Problem: Would you mind telling me what IC50 value was observed for CCNCC1(CC(=O)O)CCCCC1 [Example 28, hydrochloride salt] ?
Solution: 0.181

###

Listed below: log10(IC50) values for each entry.
- Target Desc: rBCATc (Rattus norvegicus)
- Construct: The supernatant was dialyzed with at least three changes of dialysis buffer; from tissue; host or cells: rat brain (high-speed supernatant of homogenate, dialyzed)
- Assay Method Text: Assay of BCAT ([14C] L-leucine transamination, rat brain supernatant enzyme)
- Type: biochemical
- Condition Parameters: 25 µM [14C] L-leucine, 10 mM 2-oxoglutarate, pH 8.3, 10 min, 22 °C; read-out: rBCATc IC50
Remember, log10 of IC50, in mM.

Problem: What value of measured log10(IC50) is listed for O=C(O)CC1(CNCC2CCCCC2)CCCCC1 ?
Solution: 0.42

###

- Target Desc: rBCATc (Rattus norvegicus, UniProt P54690)
- Construct: The supernatant was dialyzed with at least three changes of dialysis buffer; from tissue; host or cells: rat brain (high-speed supernatant of homogenate, dialyzed)
- Assay Method Text: Assay of BCAT ([14C] L-leucine transamination, rat brain supernatant enzyme)
- Assay type: biochemical
- Condition Parameters: 25 µM [14C] L-leucine, 10 mM 2-oxoglutarate, pH 8.3, 10 min, 22 °C; read-out: rBCATc IC50
Where a name gives a salt, the structure may show the parent alone.
Recorded IC50, one value per entry.
Unit mM implied. Number only.

For orientation, consider the following solved cases.
Molecule: CC(CO)NCC1(CC(=O)O)CCCCC1 (centres unmarked) [Example 30, hydrochloride salt]
Quantity Unit: mM
IC50: 2.25

Molecule: C[C@@H]1C[C@H](C)C[C@@](CO)(CC(=O)O)C1 [Example 50, hydrochloride salt]
Quantity Unit: mM
IC50: 0.842

Problem: Requested read-out IC50, target or system rBCATc (Rattus norvegicus, UniProt P54690), entry C[C@@H]1CC(CN)(CC(=O)O)C[C@H]1C (racemic) [Example 4, hydrochloride]
Solution: 2.51

Problem: Entry C[C@@H]1C[C@H](C)CC(CNCC2CCCCC2)(CC(=O)O)C1 (some centres unmarked) [Example 46, hydrochloride salt] , system rBCATc (Rattus norvegicus, UniProt P54690): what IC50 was measured?
Solution: 1.13

###

- Target Desc: rBCATc (Rattus norvegicus, UniProt P54690)
- Construct: The supernatant was dialyzed with at least three changes of dialysis buffer; from tissue; host or cells: rat brain (high-speed supernatant of homogenate, dialyzed)
- Sequence (P54690 1-411): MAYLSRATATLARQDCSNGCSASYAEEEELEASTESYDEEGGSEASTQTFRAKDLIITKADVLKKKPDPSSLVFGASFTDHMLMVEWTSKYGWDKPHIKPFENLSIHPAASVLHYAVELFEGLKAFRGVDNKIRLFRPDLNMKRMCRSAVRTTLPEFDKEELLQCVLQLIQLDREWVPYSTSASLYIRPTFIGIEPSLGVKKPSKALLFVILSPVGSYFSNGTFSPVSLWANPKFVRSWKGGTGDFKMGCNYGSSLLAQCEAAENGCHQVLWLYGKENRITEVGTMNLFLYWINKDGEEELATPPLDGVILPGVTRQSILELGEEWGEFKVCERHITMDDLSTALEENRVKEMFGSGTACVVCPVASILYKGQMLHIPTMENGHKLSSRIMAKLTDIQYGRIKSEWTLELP
- Assay Method Text: Assay of BCAT ([14C] L-leucine transamination, rat brain supernatant enzyme)
- Type: biochemical
- Condition Parameters: 25 µM [14C] L-leucine, 10 mM 2-oxoglutarate, pH 8.3, 10 min, 22 °C; read-out: rBCATc IC50
Counter-ions that a name gives are not always drawn.
Property Measured: IC50
Lab note: write values as number then unit, every time.

These solved cases illustrate the format of a correct answer.
Compound: CNC[C@@]1(CC(=O)O)C[C@H](C)C[C@H](C)C1 [Example 15, hydrochloride salt]
IC50: 82 µM
//
Compound: COC(CNCC1(CC(=O)O)C[C@H](C)C[C@H](C)C1)OC (some centres unmarked) [Example 44, hydrochloride salt]
IC50: 2730 µM
//
Compound: CCCNC[C@@]1(CC(=O)O)C[C@H](C)C[C@H](C)C1 [Example 9, hydrochloride salt]
IC50: 120 µM
//
Compound: C[C@@H]1C[C@H](C)CC(CO)(CC(=O)O)C1 (some centres unmarked) [Example 58, sodium salt]
IC50: 179 µM
//
Compound: COC(CNCC1(CC(=O)O)CCCCC1)OC [Example 53, hydrochloride salt]
IC50: 3340 µM

Problem: # input compound: CC1CC(C)CC(CC(=O)O)(CN(C)C)C1 (centres unmarked) [Example 12, hydrochloride salt] ; wanted: its IC50
Solution: 1490 µM

Problem: Requested read-out: IC50. Entry: O=C(O)CC1(CNC2CCC2)CCCCC1 [Example 20, hydrochloride salt]
Solution: 469 µM

Problem: For CCC1CCC(CN)(CC(=O)O)CC1 (centres unmarked) , what is its reported IC50?
Solution: 11500 µM

Problem: Fill blank: measured IC50 of the compound C[C@@H]1CCC(CN)(CC(=O)O)C1 (mixture of isomers) [Example 5, hydrochloride] is ____.
Solution: 2930 µM

Problem: IC50 for CC(=O)NC[C@@]1(CC(=O)O)C[C@H](C)C[C@H](C)C1 ?
Solution: 1320 µM

Problem: Need IC50, item C[C@@H]1C[C@H](C)CC(CC(=O)O)(CC(=O)O)C1
Solution: 8530 µM

###

Collected log10(IC50) values appear next to each entry.
- Target Desc: rBCATc (Rattus norvegicus, UniProt P54690)
- Construct: The supernatant was dialyzed with at least three changes of dialysis buffer; from tissue; host or cells: rat brain (high-speed supernatant of homogenate, dialyzed)
- Assay Method Text: Assay of BCAT ([14C] L-leucine transamination, rat brain supernatant enzyme)
- Type: biochemical
- Condition Parameters: 25 µM [14C] L-leucine, 10 mM 2-oxoglutarate, pH 8.3, 10 min, 22 °C; read-out: rBCATc IC50
Counter-ions that a name gives are not always drawn.
Could you please treat all values as log10 of IC50 in µM?

# annotated cases, reported log10(IC50) shown
Molecule: C[C@@H]1C[C@H](C)C[C@](CO)(CC(=O)O)C1 [Example 49, hydrochloride salt]
log10(IC50): 1.92
--
Molecule: CCNCC1(CC(=O)O)CC(C)CC(C)C1 (stereo not shown) [Example 10, hydrochloride salt]
log10(IC50): 2.08
--
Molecule: CC(=O)NCC1(CC(=O)O)CCCCC1
log10(IC50): 3.58
--
Molecule: CC(C)CNCC1(CC(=O)O)CCCCC1 [Example 31, hydrochloride salt]
log10(IC50): 2.96
--
Molecule: NCC1(CC(=O)O)CCCC1 [Example 24]
log10(IC50): 2.97

Problem: log10(IC50) lookup needed for CCNCC1(CC(=O)O)C[C@H](C)C[C@H](C)C1 (stereo in doubt) [Example 59, hydrochloride salt] , thanks.
Solution: 3.53

Problem: # query: log10(IC50) of entry CCCNCC1(CC(=O)O)CCCCC1 [Example 32, hydrochloride salt]
Solution: 2.39

Problem: Please give the measured log10(IC50) for this molecule: O=C(O)CC1(CNCC2CC2)CCCCC1 [Example 29, hydrochloride salt]
Solution: 2.59

Problem: Would you mind telling me what log10(IC50) value was observed for C[C@H]1CC(CN)(CC(=O)O)C[C@@H]1C [Example 7, hydrochloride] ?
Solution: 3.34

Problem: Field request: log10(IC50) | item: CCC(C)CNCC1(CC(=O)O)C[C@H](C)C[C@H](C)C1 (stereo partly shown) [Example 42, hydrochloride salt]
Solution: 2.83

Problem: Suppose we examine the molecule CN(Cc1ccccc1)CC1(CC(=O)O)CCCCC1 [Example 55, hydrochloride salt] ; what log10(IC50) value has been reported?
Solution: 3.97

Problem: What value of log10(IC50) has been reported for the following molecule? CCCCNCC1(CC(=O)O)CCCCC1 [Example 52, hydrochloride salt]
Solution: 3.40

Problem: Which log10(IC50) is listed for C[C@@H]1C[C@H](C)C[C@@](CC(=O)O)(CN(C)Cc2ccccc2)C1 [Example 14, hydrochloride salt] ?
Solution: 3.93

Problem: Entry under review: CCCC1CCC(CN)(CC(=O)O)CC1 (stereo not shown) . Reported log10(IC50)?
Solution: 2.06

Problem: # log10(IC50) lookup, item CC(CO)NCC1(CC(=O)O)C[C@H](C)C[C@H](C)C1 (stereo partly shown) [Example 43, hydrochloride salt]
Solution: 3.32

Problem: Any idea what its log10(IC50) is? The molecule is CC(C)(C)OC(=O)NCC1(CC(=O)O)CCCCC1
Solution: 2.97
